# tube area decrease annotations
Assay: inhibition of endothelial tube formation, primary screen, imaging, VEGF stimulated, CD31 staining, tube area, NPC library (AID 1117340)
Details: VEGF-stimulated ADSC/ECFC co-culture, at 10 µM, active compounds read high
I only need the number, in %, no unit after it.

**Q:** Dear colleague, I am looking for the recorded tube area decrease of the following molecule: `CN(C)c1ccc2nc3ccc(=[N+](C)C)cc-3sc2c1`
**A:** 103

**Q:** Next molecule up: `Nc1c2ccccc2nc2ccccc12`
**A:** 81.5

**Q:** Try the molecule CN1Cc2c(N)cccc2C(c2ccccc2)C1 (stereo unspecified)
**A:** 3.2

**Q:** Entry O=C(NC(Cc1cc(=O)[nH]c2ccccc12)C(=O)O)c1ccc(Cl)cc1 (stereo unspecified) please
**A:** 19.9

**Q:** Now consider `O=C(c1ccc(F)cc1)C1CCN(CCn2c(=S)[nH]c3ccccc3c2=O)CC1` and answer again.
**A:** -7.4

**Q:** And the next one, `CCCOc1ccc(C(=O)OCCN(CC)CC)cc1N` ?
**A:** -3.5

**Q:** Please do the same for `CC(=O)OCC(=O)[C@@]1(O)[C@H](OC(C)=O)C[C@H]2[C@@H]3CCC4=CC(=O)C=C[C@]4(C)[C@@]3(F)[C@@H](O)C[C@@]21C` as well.
**A:** -8.6

**Q:** Let us now turn to `CN1CCC(=C2c3ccccc3Sc3ccccc32)CC1`
**A:** 51.9

----------
Property: period change; scope: individual molecules
Experiment: compounds altering circadian rhythm period length – cell-based, LOPAC library, luminescence reporter (AID 2774);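 note: values are relative to mean of DMSO wells on each plate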
Settings: circadian reporter cells, at 7 µM, actives lie on both sides
Activity calls are given as the source filed them. No rule for the calls is given here.

Would you please look over these solved cases?
MOL SMILES: Cc1nc2sccn2c(=O)c1CCN1CCC(=C(c2ccc(F)cc2)c2ccc(F)cc2)CC1
period change: 0.08 h (inactive)
//
MOL SMILES: Cc1nnc(SCC2=C(C(=O)O)N3C(=O)[C@@H](NC(=O)Cn4cnnn4)[C@H]3SC2)s1
period change: -0.065 h (inactive)
//
MOL SMILES: Cc1cn([C@H]2C=C[C@@H](CO)O2)c(=O)[nH]c1=O
period change: -0.14 h (inactive)
//
MOL SMILES: NCCS(=O)(=O)O
period change: -0.23 h (inactive)

# next molecule below
**Q:** Record request: period change value, item `CC(=O)OCC1=C(C(=O)O)N2C(=O)[C@@H](NC(=O)Cc3cccs3)[C@H]2SC1`
**A:** 0.04 h (inactive)

----------
Catalogue of molecules with associated log fold change Tl+ flux
Test system: F380Y/beta1
Experiment: BK channel mutant inhibitors and activators – cell-based, U2OS BacMam, thallium flux, beta subunits, selectivity assay, profiling panel (AID 1259406);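 note: initial slope of Thallos dye fluorescence rise after thallium is added; log ratio against the mean of 0.3% DMSO vehicle wells on the same plate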
Details: U2OS BacMam BK variants, at 30 µM
Form field (numeric): enter value without unit.

Some molecules with known log fold change Tl+ flux results, for comparison:
MOLECULE: CN(C)CC/C=C1/c2ccccc2COc2ccc(CC(=O)O)cc21
log fold change Tl+ flux: 0.0119
--
MOLECULE: CCN1CCC[C@H]1CNC(=O)c1cc(S(N)(=O)=O)ccc1OC
log fold change Tl+ flux: 0.000794
--
MOLECULE: Cc1cccc(C)c1OCC(C)N (stereo not drawn)
log fold change Tl+ flux: 0.0282
--
MOLECULE: C[C@@H]1C[C@H]2[C@@H]3CCC4=CC(=O)C=C[C@]4(C)[C@@]3(F)[C@@H](O)C[C@]2(C)[C@H]1C(=O)CO
log fold change Tl+ flux: 0.0836
--
MOLECULE: CCCc1nc(C)c2c(=O)[nH]c(-c3cc(S(=O)(=O)N4CCN(CC)CC4)ccc3OCC)nn12
log fold change Tl+ flux: 0.00246
--
MOLECULE: O=C(O)CCNC(=O)c1ccc(N=Nc2ccc(O)c(C(=O)O)c2)cc1
log fold change Tl+ flux: -0.0255

**Q:** Quick check: log fold change Tl+ flux of COc1cc2c(cc1OC)C(=O)C(CC1CCN(Cc3ccccc3)CC1)C2 (stereo not drawn) ?
**A:** -0.0145

**Q:** Another molecule to check: `Nc1nc(N)nc(-c2cc(Cl)ccc2Cl)n1`
**A:** 0.00785

**Q:** For `COC1=C(OC)C(=O)C(CCCCCCCCCCO)=C(C)C1=O` then?
**A:** 0.138

**Q:** Now try COc1ccccc1N1CCN(CC(O)COc2cccc3ccccc23)CC1 (stereo not drawn) .
**A:** -0.0336

**Q:** Input `C[C@@H]1CN(CCCn2c3ccccc3c3ccccc32)C[C@H](C)N1`
**A:** 0.208

**Q:** Same question, CC(C)NCC(O)COc1ccc(CCOCC2CC2)cc1 (stereo not drawn) this time
**A:** 0.0244

**Q:** Likewise for `O=c1[nH]cnc2c1ncn2[C@H]1CC[C@@H](CO)O1` ?
**A:** -0.0163

**Q:** Then this molecule: COc1ccccc1OCC(O)CN1CCN(CC(=O)Nc2c(C)cccc2C)CC1 (stereo not drawn)
**A:** 0.0232
